I'd be grateful if you could share measured self-cleavage for these entries.
B1: Osa-1-4 twister ribozyme (parent)
chain: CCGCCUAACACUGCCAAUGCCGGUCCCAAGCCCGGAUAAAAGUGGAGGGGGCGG

Variants of: B1
Experiment: self-cleavage, relative activity (ratio to wild type); higher = more cleavage; co-transcriptional
Give your answer as a number; write no unit.

// self-cleavage lookup, key: A10G U12G 0.2

// self-cleavage lookup, key: A8U U24G 0.02

// self-cleavage lookup, key: C20U C9A 0.38

// self-cleavage lookup, key: C20U C25A 0.17

// self-cleavage lookup, key: A41C C32G 0.11

// self-cleavage lookup, key: G42A G47U 0.07

// self-cleavage lookup, key: C20U G44U 0.87

// self-cleavage lookup, key: A10G G47A 0.13

// self-cleavage lookup, key: A28U A46U 0.08

// self-cleavage lookup, key: C31A U18G 0.05

// self-cleavage lookup, key: A38U C21U 0.99

// self-cleavage lookup, key: A16C A46U 0.07

// self-cleavage lookup, key: G35U G50U 0.92

// self-cleavage lookup, key: A16U C15U 0.18

// self-cleavage lookup, key: C33G G19U 0.03

// self-cleavage lookup, key: C31G G44U 0.05

// self-cleavage lookup, key: A39G G22U 0.26

// self-cleavage lookup, key: A39U G19U 0.11

// self-cleavage lookup, key: A16U A40C 0.07

// self-cleavage lookup, key: C33U G44C 0.29

// self-cleavage lookup, key: A40U U37C 0.77

// self-cleavage lookup, key: A36C U12C 0.08

// self-cleavage lookup, key: C33A G42C 0.06

// self-cleavage lookup, key: C20U U37G 1.04

// self-cleavage lookup, key: A41G G30U 0.05

// self-cleavage lookup, key: C32U U43A 0.09

// self-cleavage lookup, key: A10U G34C 0.03

// self-cleavage lookup, key: G13A G35A 0.12

// self-cleavage lookup, key: A16C A28C 0.83

// self-cleavage lookup, key: G53C U37G 0.15

// self-cleavage lookup, key: C32G G13U 0.01

// self-cleavage lookup, key: C52A G54C 0.87

// self-cleavage lookup, key: G42C G51C 0.06

// self-cleavage lookup, key: G19U G42C 0.06

// self-cleavage lookup, key: C25A G19C 0.03

// self-cleavage lookup, key: G30A U24A 0.03

// self-cleavage lookup, key: G35A G48U 0.09

// self-cleavage lookup, key: C26G G19U 0.05

// self-cleavage lookup, key: G23C U18G 0.06

// self-cleavage lookup, key: C27U U12G 0.07

// self-cleavage lookup, key: A28U A8G 0.18

// self-cleavage lookup, key: A29U C11G 0.04

// self-cleavage lookup, key: A17C C25G 0.03

// self-cleavage lookup, key: A39U G51C 0.06

// self-cleavage lookup, key: A29C A41U 0.05

// self-cleavage lookup, key: A16U A41C 0.93

// self-cleavage lookup, key: C25G U43C 0.06

// self-cleavage lookup, key: A36C G50U 0.37

// self-cleavage lookup, key: A38G C21G 0.08

// self-cleavage lookup, key: G19A G47C 0.08

// self-cleavage lookup, key: A8C C26A 0.03

// self-cleavage lookup, key: A38U G19U 0.22

// self-cleavage lookup, key: A16U G23C 0.06

// self-cleavage lookup, key: A36C A40U 0.13

// self-cleavage lookup, key: A36C G13U 0.02

// self-cleavage lookup, key: A38C C33G 0.05

// self-cleavage lookup, key: A46C C14A 0.02

// self-cleavage lookup, key: C9U G13U 0.01

// self-cleavage lookup, key: C20A U12A 0.82

// self-cleavage lookup, key: G44A G51A 0.79

// self-cleavage lookup, key: A41C G44C 0.97

// self-cleavage lookup, key: A36U A8C 0.09

// self-cleavage lookup, key: G44C U43C 0.73

// self-cleavage lookup, key: C31A U18A 0.04

// self-cleavage lookup, key: A10C C26U 0.03

// self-cleavage lookup, key: G13U U12G 0.14

// self-cleavage lookup, key: A40U U12C 0.19

// self-cleavage lookup, key: C15A U18A 0.51

// self-cleavage lookup, key: A17C G47C 0.05

// self-cleavage lookup, key: A41U G44A 0.88

// self-cleavage lookup, key: C25U U43C 0.13

// self-cleavage lookup, key: A17U G23C 0.06

// self-cleavage lookup, key: A17C C14U 0.64

// self-cleavage lookup, key: A36C G45C 0.04

// self-cleavage lookup, key: A7U C25A 0.03

// self-cleavage lookup, key: C32A C33U 0.05

// self-cleavage lookup, key: A16U G51A 0.64

// self-cleavage lookup, key: G22A U43C 0.18

// self-cleavage lookup, key: A29G G22A 0.11

// self-cleavage lookup, key: C25A G19U 0.04

// self-cleavage lookup, key: C27G C32U 0.05

// self-cleavage lookup, key: G35C U24A 0.06

// self-cleavage lookup, key: A17U G45A 0.54

// self-cleavage lookup, key: A39U C52G 1.01

// self-cleavage lookup, key: C11A C9A 0.33

// self-cleavage lookup, key: C14A 0.13

// self-cleavage lookup, key: C26U G34A 0.92
